experiment: blockers of measles virus-induced cell death – single point, MLSMR library, absorbance, measles RdRp inhibitor project, primary screen (AID 841); settings: Measles virus-infected cells, CPE protection, at 4 µM, hits give high values
The whole screen tested about 140,000 compounds, of which about 2,100 (1.5%) were called active. Many of the other results were omitted from the sample, so actives are more common in it than they were.
QUANTITY MEASURED: protection (pct of control) (%)
Provide the reading as a plain figure in %.

Ask | Returns the measured protection (pct of control) for the input compound. Input: `CCOC(=O)c1c(-c2ccccc2)csc1NC(=S)NC(=O)c1ccccc1`
Reply | 9.01

Ask | What do you get for `Cc1noc(C)c1COC(=O)Cn1c(C)nc2ccccc21` ?
Reply | 7.94

Ask | Next compound: `CO/N=C(\N)c1ccc([N+](=O)[O-])cc1`
Reply | 2.5

Ask | Could you do the same for `Fc1ccc(CNCc2ccc(Br)cc2)cc1` , please?
Reply | 8.72

Ask | Proceed to `Nc1nc(NC(=O)/C=C/c2ccccc2)nn1-c1ccccc1`
Reply | 3.85

---

assay: blockers of measles virus-induced cell death – single point, MLSMR library, absorbance, measles RdRp inhibitor project, primary screen (AID 841); settings: Measles virus-infected cells, CPE protection, at 4 µM
Among all 140,000 compounds or so, about 2,100 (1.5%) were called active. Rule as the data show it: active = protection mostly above about 24% (no sharp cut-off); inactive = mostly below about 26%. The entries come from a sample that favours actives as a whole.
Use one of these outcomes when replying: yes for active, no for inactive

Example entries and their recorded answers appear below.
* Cc1ccc(-c2csc(SCC(=O)Nc3cc(C)on3)n2)cc1 | no
* O=C(COc1ccccc1)NCc1ccc2c(c1)OCO2 | no
* COc1ccc(C(=O)ON=C2c3ccccc3-c3ccccc32)cc1OC | no

Ask | Record lookup: outcome of this test for C=CCn1c(=N)n(CC(O)COc2ccc(OC)cc2)c2ccccc21 (centres undefined) ?
Reply | no

Ask | Thanks! And `CCCCCOc1ccc(/C=C/C(=O)NCCc2nc3ccccc3[nH]2)cc1OC` ?
Reply | no

Ask | Also need `Cc1ccc(-c2csc(NC(=O)Cc3cccs3)n2)cc1C` , thanks.
Reply | yes

Ask | And then `COc1ccccc1-c1nnc(SCC(=O)Nc2cc(C)on2)o1` , what is it?
Reply | no

---

assay: blockers of measles virus-induced cell death – single point, MLSMR library, absorbance, measles RdRp inhibitor project, primary screen (AID 841); conditions: Measles virus-infected cells, CPE protection, at 4 µM, hits give high values
Out of some 140,000 compounds screened, about 2,100 (1.5%) were called active. The entries come from a sample that favours actives as a whole.
# maps each entry to its protection (pct of control)
A number alone suffices; assume %.

Past entries and their recorded results:
* NC1=NC(=O)C(Cc2cccc(Cl)c2Cl)S1 (stereo not given) | 22.3
* Cc1nn(C)cc1CNC(=O)Nc1ccc(Cl)cc1 | 8.21

Ask | Which protection (pct of control) value belongs to `N#Cc1c(-c2ccc(F)cc2)cc(C2CC2)nc1SCC(=O)c1cccs1` ?
Reply | 17.3

Ask | Also, CC(=O)Nc1ccc(S(=O)(=O)NC2(C(F)(F)F)C(=O)Nc3c2c(=O)[nH]c(=O)n3Cc2ccccc2)cc1 (stereo not given) please.
Reply | 10.5

Ask | Subsequent entry: CC1(C)CC(=O)C2=C(C1)Nc1cc(C(=O)c3ccccc3)ccc1NC2c1ccccn1 (stereo not given)
Reply | 2.11

Ask | Subsequent entry: `COc1ccccc1CC(=O)Nc1ccc([N+](=O)[O-])cc1OC`
Reply | 14.5

Ask | Another: COC(=O)C(C)Sc1nc2c(c(=O)n(C)c(=O)n2C)n1Cc1cccc(C)c1 (stereo not given)
Reply | 13.3
